# Tested on: HOP-92 NSCLC
# Method description: NCI tumour cell line growth inhibition, 48 h; in the data active = GI50 below about 0.43 µM; inactive = the rest
Give one outcome, nothing more. List: active, inactive

Field: example entries. Status: answers known.
Molecule	Class name
CC1=C(C(=O)Nc2ccc(Cl)c(Cl)c2)C(c2ccccc2Cl)NC(=S)N1 (stereo not given)	inactive
CC[C@@]1(O)C(=O)OCc2c1cc1n(c2=O)Cc2cc3c([N+](=O)[O-])c(OC)ccc3nc2-1	active
C=C1C(=O)O[C@H]2[C@H]1CC/C(COC(=O)NCc1ccc(Cn3c(=O)sn(CCI)c3=O)cc1)=C\CC[C@@]1(C)O[C@@H]21	inactive
C=C(C)[C@@H]1C/C=C(\COC(=O)[C@H](OC(C)=O)C(NC(=O)c2ccccc2)c2ccccc2)CC[C@H]2O[C@]2(C)CC/C=C(\C)CC1 (stereo not given in full)	inactive

**Query** Hi team, can someone confirm the assay call for COc1ccc(-c2cnoc2-c2ccc(OC)cc2O)cc1 ?
**Result** inactive

Origin of measurements: PubChem BioAssay (NCI)
